Target: human mGlu2 receptor (Homo sapiens)
Construct: expressed in transfected cells; host or cells: CHO cells (membrane preparation)
Test: [35S]GTPγS binding assay (mGluR2 negative allosteric modulation)
Type: biochemical
Details: membranes from CHO cells transfected with human mGlu2 receptor; glutamate 60 μM; pIC50 = −log IC50 (M); read-out: GTPγS - hmGluR2 anGT pIC50 (converted)
quantity kind: IC50 (M)
Just the number in M, nothing appended.

molecule: CCOc1nc(N2C[C@H](C)n3ncc(-c4ccnc(C)c4)c3C2=O)ccc1Cl
quantity kind: IC50
test result: 8.32e-09
--
molecule: Cc1cc(-c2cnn3c2C(=O)N(c2ccc(S(F)(F)(F)(F)F)cc2)C[C@@H]3C)cc(C)n1
quantity kind: IC50
test result: 9.77e-09
--
molecule: CCOc1cc(N2C[C@H](C)n3ncc(-c4ccnc(C)c4)c3C2=O)ccc1Cl
quantity kind: IC50
test result: 5.25e-08
--
molecule: C[C@H]1CN(c2ccc(Cl)cc2)C(=O)c2c(-c3ccncc3)cnn21
quantity kind: IC50
test result: 1.29e-07
--
molecule: C[C@H]1CN(c2ccc(Cl)c(Cl)c2)C(=O)c2c(-c3ccnc(C(F)F)c3)cnn21
quantity kind: IC50
test result: 7.08e-09
--
molecule: CCOc1nc(N2C[C@H](C)n3ncc(-c4cc(C)nc(C)c4)c3C2=O)ccc1C(F)(F)F
quantity kind: IC50
test result: 1.02e-08

Query Cc1cc(-c2cnn3c2C(=O)N(c2ccc(Cl)cc2)C[C@@H]3C)ccn1 yields IC50 of 2.63e-08

Query CN(C)c1cc(-c2cnn3c2C(=O)N(c2ccc(Cl)c(Cl)c2)CC3CF)ccn1 (single isomer, unassigned) [compound 90] yields IC50 of 3.09e-09

Query CNc1cc(-c2cnn3c2C(=O)N(c2ccc(Cl)c(Cl)c2)CC3CF)ccn1 (single isomer, unassigned) [compound 184] yields IC50 of 2.75e-07

Query Cc1cc(-c2cnn3c2C(=O)N(c2ccc(C)c(F)c2)C[C@@H]3C)ccn1 yields IC50 of 2.82e-07

Query Cc1cc(-c2cnn3c2C(=O)N(c2ccc(SC(F)(F)F)cc2)C[C@@H]3C)ccn1 yields IC50 of 7.24e-09

Query CC(O)c1cc(-c2cnn3c2C(=O)N(c2ccc(C(F)(F)F)cc2)C[C@@H]3C)ccn1 (stereo partly shown) yields IC50 of 5.89e-07

Query COc1cc(-c2cnn3c2C(=O)N(c2ccc(C(F)(F)F)cc2)C[C@@H]3C)cc(C)n1 yields IC50 of 1.86e-08

Query COc1cc(-c2cnn3c2C(=O)N(c2ccc(C(F)(F)F)c(OC)n2)C[C@@H]3C)ccn1 yields IC50 of 6.76e-09

Query Cc1cc(-c2cnn3c2C(=O)N(c2cccc(C(F)(F)F)c2)C[C@@H]3C)ccn1 yields IC50 of 1.1e-07

* * *

Target: human mGlu2 receptor (Homo sapiens, UniProt Q14416)
Construct: expressed in transfected cells; host or cells: CHO cells (membrane preparation)
Sequence (Q14416 19-872): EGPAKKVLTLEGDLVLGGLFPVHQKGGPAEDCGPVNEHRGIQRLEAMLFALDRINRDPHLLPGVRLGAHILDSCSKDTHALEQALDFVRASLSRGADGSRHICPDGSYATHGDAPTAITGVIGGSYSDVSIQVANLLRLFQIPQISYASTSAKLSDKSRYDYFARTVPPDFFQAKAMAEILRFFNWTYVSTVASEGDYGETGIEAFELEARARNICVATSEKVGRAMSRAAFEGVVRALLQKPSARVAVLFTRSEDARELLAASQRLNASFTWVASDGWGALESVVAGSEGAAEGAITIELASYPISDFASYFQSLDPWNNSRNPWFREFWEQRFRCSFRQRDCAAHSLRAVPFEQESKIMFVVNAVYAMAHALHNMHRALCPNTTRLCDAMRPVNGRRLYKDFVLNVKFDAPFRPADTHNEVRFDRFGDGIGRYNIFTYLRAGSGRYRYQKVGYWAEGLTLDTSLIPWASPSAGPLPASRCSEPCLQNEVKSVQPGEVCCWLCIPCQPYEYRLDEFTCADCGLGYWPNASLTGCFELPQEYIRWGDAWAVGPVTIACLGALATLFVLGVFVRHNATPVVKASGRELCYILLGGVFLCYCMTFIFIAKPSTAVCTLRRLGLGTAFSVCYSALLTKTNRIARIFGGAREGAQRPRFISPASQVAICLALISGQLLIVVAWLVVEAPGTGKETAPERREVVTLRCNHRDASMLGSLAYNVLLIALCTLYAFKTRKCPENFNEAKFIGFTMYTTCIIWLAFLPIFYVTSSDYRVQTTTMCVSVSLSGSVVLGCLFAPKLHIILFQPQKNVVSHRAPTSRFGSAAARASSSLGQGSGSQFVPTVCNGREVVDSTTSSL
Test: [35S]GTPγS binding assay (mGluR2 negative allosteric modulation)
Format: biochemical
Conditions: relative maximal effect: maximal % inhibition relative to the control glutamate response; read-out: GTPγS - hmGluR2 anGT Emax
quantity kind: Emax (%)
Just the number in %, nothing appended.

substance smiles: Cc1cc(-c2cnn3c2C(=O)N(c2ccc(C#N)c(F)c2)C[C@@H]3C)ccn1
quantity kind: Emax
test result: 100

Query Cc1cc(-c2cnn3c2C(=O)N(c2ccc(Cl)cc2)C[C@@H]3C)ccn1 yields Emax of 103

Query C[C@H]1CN(c2ccc(C(F)(F)F)c(Cl)c2)C(=O)c2c(-c3ccnc(N4CCC4)c3)cnn21 yields Emax of 108

Query CCOc1cc(N2C[C@H](C)n3ncc(-c4cc(C)nc(C)c4)c3C2=O)ccc1C(F)(F)F yields Emax of 103

Query C[C@H]1CN(c2ccc(C(F)(F)F)cc2)C(=O)c2c(-c3ccnc(N4CCC4)c3)cnn21 yields Emax of 107

Query Cc1cc(-c2cnn3c2C(=O)N(c2ccc(C(F)(F)F)c(C#N)c2)C[C@@H]3C)cc(C)n1 yields Emax of 98

Query Cc1cc(-c2cnn3c2C(=O)N(c2ccc(C(F)(F)F)cc2)C[C@@H]3C)cnc1C yields Emax of 102

Query Cc1cc(-c2cnn3c2C(=O)N(c2ccc4c(c2)OCCO4)C[C@@H]3C)ccn1 yields Emax of 102
